Every entry's value here was drawn from patent US8658604B2.

tested.target: CathepsinG, from human neutrophils (Homo sapiens, UniProt P08311)
Sequence (P08311 21-244): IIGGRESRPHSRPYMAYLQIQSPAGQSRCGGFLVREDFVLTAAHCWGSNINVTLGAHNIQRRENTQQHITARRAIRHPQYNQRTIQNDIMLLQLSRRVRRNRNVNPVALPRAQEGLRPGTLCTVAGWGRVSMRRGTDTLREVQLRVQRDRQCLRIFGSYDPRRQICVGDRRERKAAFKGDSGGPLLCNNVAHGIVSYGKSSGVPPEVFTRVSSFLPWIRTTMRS
assay.notes: Enzymatic assay, cathepsin G
measurement.conditions: Cathepsin G IC50
Where a SMILES comes first, the peptide text is derived from it.
List of IC50 values.
measurement.type: IC50 (nM)

[[record]]
molecule = "CCCC[C@@H]1NC(=O)[C@@H]2CCCN2C(=O)[C@H]2CCCN2C(=O)[C@H](Cc2ccccc2Cl)NC(=O)[C@@H]2CSSC[C@H](NC1=O)C(=O)N[C@@H]([C@@H](C)O)C(=O)N[C@@H](C)C(=O)N[C@@H](CO)C(=O)N[C@@H]([C@@H](C)CC)C(=O)N1CCC[C@H]1C(=O)N1CCC[C@H]1C(=O)N[C@@H](CCC(N)=O)C(=O)N2 [Ex. 96] (HELM PEPTIDE1{[Nle].C.T.A.S.I.P.P.Q.C.[O=C([C@H](Cc1ccccc1Cl)N[*:1])[*:2]].[dP].P}$PEPTIDE1,PEPTIDE1,2:R3-10:R3|PEPTIDE1,PEPTIDE1,1:R1-13:R2$$$V2.0)"
measurement_type = "IC50"
observed_measurement = 21200

[[record]]
molecule = "CC[C@H](C)[C@@H]1NC(=O)[C@@H]2CCCN2C(=O)[C@@H]2CCCN2C(=O)[C@H](CC(=O)O)NC(=O)[C@H](CO)NC(=O)[C@H](CCCCN)NC(=O)[C@H]([C@@H](C)O)NC(=O)[C@@H]2CSSC[C@H](NC1=O)C(=O)N[C@@H](Cc1ccccc1)C(=O)N1CCC[C@@H]1C(=O)N1CCC[C@H]1C(=O)N[C@@H](CCCNC(=N)N)C(=O)N2 [Ex. 75] (HELM PEPTIDE1{R.C.T.K.S.D.P.P.I.C.F.[dP].P}$PEPTIDE1,PEPTIDE1,2:R3-10:R3|PEPTIDE1,PEPTIDE1,1:R1-13:R2$$$V2.0)"
measurement_type = "IC50"
observed_measurement = 86

[[record]]
molecule = "CC[C@H](C)[C@@H]1NC(=O)[C@@H]2CCCN2C(=O)[C@H]2CCCN2C(=O)[C@H](CCCNC(=N)N)NC(=O)[C@@H]2CSSC[C@H](NC1=O)C(=O)N[C@@H]([C@@H](C)O)C(=O)N[C@@H](CCCCN)C(=O)N[C@@H](CO)C(=O)N[C@@H](CC(C)C)C(=O)N1CCC[C@H]1C(=O)N1CCC[C@H]1C(=O)N[C@@H]([C@@H](C)CC)C(=O)N2 [Ex. 180] (HELM PEPTIDE1{I.C.T.K.S.L.P.P.I.C.R.[dP].P}$PEPTIDE1,PEPTIDE1,2:R3-10:R3|PEPTIDE1,PEPTIDE1,1:R1-13:R2$$$V2.0)"
measurement_type = "IC50"
observed_measurement = 120

[[record]]
molecule = "CC[C@H](C)[C@@H]1NC(=O)[C@@H]2CCCN2C(=O)[C@@H]2CCCN2C(=O)[C@H](CC(=O)O)NC(=O)[C@H](CO)NC(=O)[C@H](CCCCN)NC(=O)[C@H]([C@@H](C)O)NC(=O)[C@@H]2CSSC[C@H](NC1=O)C(=O)N[C@@H](CO)C(=O)N1CCC[C@@H]1C(=O)N1CCC[C@H]1C(=O)N[C@@H](Cc1ccccc1)C(=O)N2 [Ex. 4] (HELM PEPTIDE1{F.C.T.K.S.D.P.P.I.C.S.[dP].P}$PEPTIDE1,PEPTIDE1,2:R3-10:R3|PEPTIDE1,PEPTIDE1,1:R1-13:R2$$$V2.0)"
measurement_type = "IC50"
observed_measurement = 91

